Biological target: LPAR1 (Homo sapiens, UniProt Q92633)
Construct: host or cells: U2OS
Sequence (Q92633 whole entry): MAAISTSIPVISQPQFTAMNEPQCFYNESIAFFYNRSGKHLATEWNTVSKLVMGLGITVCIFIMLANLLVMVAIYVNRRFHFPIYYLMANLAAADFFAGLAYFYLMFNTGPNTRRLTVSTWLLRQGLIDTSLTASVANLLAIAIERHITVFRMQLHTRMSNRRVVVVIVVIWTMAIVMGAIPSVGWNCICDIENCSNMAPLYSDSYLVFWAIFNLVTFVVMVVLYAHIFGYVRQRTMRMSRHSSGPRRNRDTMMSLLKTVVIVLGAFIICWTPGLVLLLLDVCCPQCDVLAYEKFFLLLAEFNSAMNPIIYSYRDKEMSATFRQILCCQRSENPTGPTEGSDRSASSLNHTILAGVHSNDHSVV
Assay: LPAR1 FLIPR Assay
Format: cell-based
Conditions: U2OS cells stably expressing LPAR1; LPA (EC80); Calcium 6 FLIPR dye
For each entry below, report its pIC50 value.
Keep it numeric: pIC50 is minus log10 of the concentration in mol/L.

pIC50 for COc1cc(OC)cc(C(=O)N(CCCc2ccccc2)CCSCC(=O)O)c1 [Example 101] ?
5.16

Entry COc1cc(C(=O)N(CCCc2ccccc2)CCOCC(=O)NS(C)(=O)=O)cc(OC)c1C [Example 157] has what pIC50?
7.80

# query: pIC50 of entry COc1cc(C(=O)N(CCCc2ccccc2)C[C@H]2CCC(=O)O2)cc(OC)c1C [Example 181]
6.31

I am curious: what pIC50 value has been reported for COc1ccc(C2(C(=O)N(CCCCC(=O)O)CCCc3ccccc3)CC2)c(F)c1 [Example 103] ?
7.17

Dear colleague, I am looking for the recorded pIC50 of the following molecule: COc1cc(C(=O)N(CCCCC(=O)O)CCCc2ccccc2)cc(OC)c1C(F)(F)F [Example 37]
7.49

Looking for the measured pIC50 of COc1cc(C(=O)N(CCCCC(=O)NS(=O)(=O)c2ccc(F)cc2)CCCc2ccccc2)cc(OC)c1C [Example 140] , can you help?
6.84

Report pIC50 for COc1cc(C(=O)N(CCCCC(=O)O)CCCc2c(F)cccc2F)cc(OC)c1C [Example 147] please.
7.51

Please report the recorded pIC50 for Cc1ncc(Cl)c(C(=O)N(CCCCC(=O)O)CCCc2ccccc2)n1 [Example 167] .
6.20

So what's the measured pIC50 for this one? COc1cc(C(=O)N(CCCCC(=O)O)CCCc2ccc(C)cc2)cc(OC)c1C [Example 42]
6.63

What measured pIC50 goes with COc1cc(C(=O)N(CCCCC(=O)O)CCCc2ccccc2)cc2ccoc12 [Example 24] ?
6.32

Field request: pIC50 | item: COc1cc(C(=O)N(CCCCC(=O)O)CCCc2ccccc2)cc2oc(C)cc12 [Example 31]
7.35

// query pIC50 value for entry COc1cc(C(=O)N(CCCCC(=O)O)CCCc2cccc(Cl)c2)cc(OC)c1C [Example 38]
7.85

Fill blank: measured pIC50 of the molecule CCOc1cc(C(=O)N(CCCCC(=O)O)CCCc2ccccc2)cc(OCC)c1OCC [Example 21] is ____.
6.65

Bench note: what pIC50 did COc1cc(C(=O)N(CCCc2c(F)cccc2F)CCSCC(=O)O)cc(OC)c1C [Example 113] show?
7.49

Given the molecule Cc1nc2c(C(=O)N(CCCCC(=O)O)CCCc3ccccc3)cccc2c(=O)[nH]1 [Example 160] , what is its reported pIC50?
5.10

Which pIC50 value belongs to COc1ccc(CCCN(CCCCC(=O)O)C(=O)c2cc(OC)c(C)c(OC)c2)cc1 [Example 43] ?
4.63

Quick one: pIC50 of COc1cc(C(=O)N(CCCc2ccccc2)CCCC(Cc2ccccc2)C(=O)O)cc(OC)c1C (stereo not shown) [Example 52] ?
6.91

// returns reported pIC50 for input COc1cc(C(=O)N(CCCCC(=O)O)CCCc2ccc(C)o2)cc(OC)c1C1CC1 [Example 178]
7.35

Please give the measured pIC50 for this molecule: CNS(=O)(=O)NC(=O)CCCCN(CCCc1ccccc1)C(=O)c1cc(OC)c(C)c(OC)c1 [Example 70]
7.25

Recorded pIC50 for O=C(O)CCCCN(CCCc1ccccc1)C(=O)C1CC(=O)Nc2ccc(F)cc21 (stereo not shown) [Example 168] , please?
5.96

Quick one: pIC50 for COc1cc(C(=O)N(CCCc2ccccc2Cl)CCOCC(=O)O)cc(OC)c1C [Example 131] ?
7.68

Name the reported pIC50 value associated with the molecule COc1cc(C(=O)N(CCCc2ccc(F)cc2)CCSCC(=O)O)cc(OC)c1C [Example 118]
6.61

Quick check: pIC50 of COc1cc(C(=O)N(CCCc2ccccc2)CCOC(C)(C)C(=O)O)cc(OC)c1C [Example 55] ?
7.66

Name the reported pIC50 value associated with the molecule COc1cc(C(=O)N(CCCc2ccccc2)CC(=O)N[C@@H](Cc2cccs2)C(=O)O)cc(OC)c1C [Example 47]
7.10

For COc1cc(C(=O)N(CCCCC(=O)O)CCCc2ccccc2)cc(OC)c1C [Example 4] , what is its reported pIC50?
7.85

Report pIC50 for COc1ccc(C2(C(=O)N(CCCCC(=O)O)CCCc3ccccc3)CCCC2)cc1 [Example 106] please.
6.12

Could you tell me which pIC50 is on file for COc1cc(OC)cc(C(=O)N(CCCCC(=O)O)CCCc2cccc(F)c2)c1 [Example 90] ?
7.43

I have this molecule here, COc1cc(C(=O)N(CCCCC(=O)O)CCCc2ccco2)cc(OC)c1C [Example 173] , and I need its recorded pIC50.
7.54

// lookup pIC50 for COc1cc(C(=O)N(CCCCC(=O)O)CCCc2ccccc2)cc(OC)c1OCCO [Example 88]
6.53
